Recorded inhibition for the following molecules
# target.or.test.system: Poly [ADP-ribose] polymerase tankyrase-1 (Homo sapiens) (UniProt O95271)
# Sequence (O95271 whole entry): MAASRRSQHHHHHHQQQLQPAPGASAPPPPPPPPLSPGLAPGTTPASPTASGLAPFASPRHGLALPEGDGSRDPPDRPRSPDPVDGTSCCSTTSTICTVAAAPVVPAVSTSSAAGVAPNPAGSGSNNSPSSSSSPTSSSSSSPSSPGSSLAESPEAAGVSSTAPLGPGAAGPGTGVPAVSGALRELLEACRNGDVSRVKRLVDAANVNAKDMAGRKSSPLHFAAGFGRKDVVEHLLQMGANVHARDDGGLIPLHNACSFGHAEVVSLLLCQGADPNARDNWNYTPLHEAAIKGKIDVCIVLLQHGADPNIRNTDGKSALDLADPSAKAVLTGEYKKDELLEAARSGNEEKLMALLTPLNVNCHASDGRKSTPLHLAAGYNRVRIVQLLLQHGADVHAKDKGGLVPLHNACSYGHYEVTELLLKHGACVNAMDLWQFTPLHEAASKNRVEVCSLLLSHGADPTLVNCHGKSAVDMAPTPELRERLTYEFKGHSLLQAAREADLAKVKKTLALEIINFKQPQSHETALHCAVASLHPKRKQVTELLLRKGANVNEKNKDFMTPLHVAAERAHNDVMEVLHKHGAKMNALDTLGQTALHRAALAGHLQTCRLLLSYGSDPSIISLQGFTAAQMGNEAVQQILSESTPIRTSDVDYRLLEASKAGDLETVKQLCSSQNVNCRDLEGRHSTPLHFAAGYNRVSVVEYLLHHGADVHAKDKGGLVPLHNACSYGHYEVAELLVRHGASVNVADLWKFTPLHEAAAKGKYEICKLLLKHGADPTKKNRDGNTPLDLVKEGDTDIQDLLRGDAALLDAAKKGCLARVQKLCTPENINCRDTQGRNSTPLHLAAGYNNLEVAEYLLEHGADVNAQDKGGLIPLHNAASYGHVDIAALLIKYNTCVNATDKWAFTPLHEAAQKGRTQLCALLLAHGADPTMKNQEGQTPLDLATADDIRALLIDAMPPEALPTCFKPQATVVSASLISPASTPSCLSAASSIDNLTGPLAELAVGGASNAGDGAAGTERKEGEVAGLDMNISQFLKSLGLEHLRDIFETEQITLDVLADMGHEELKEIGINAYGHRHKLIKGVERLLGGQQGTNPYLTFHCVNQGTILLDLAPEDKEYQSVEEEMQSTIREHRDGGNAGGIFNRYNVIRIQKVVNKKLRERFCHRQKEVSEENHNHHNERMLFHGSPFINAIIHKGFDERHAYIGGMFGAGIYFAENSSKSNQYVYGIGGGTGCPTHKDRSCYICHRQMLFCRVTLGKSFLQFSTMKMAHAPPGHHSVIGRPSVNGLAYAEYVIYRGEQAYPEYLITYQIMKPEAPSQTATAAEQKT
# assay.procedure: Inhibition of TNKS1 (unknown origin) at 10 uM using biotinylated NAD as substrate preincubated for 30 mins followed by substrate addition and measured after 1 hr by BioTek synergy 2 microplate reader analysis relative to control
# test.settings: time 90.0 min
parameter: inhibition (%)

| smiles.input | target.or.test.system | parameter | value.measured |
| --- | --- | --- | --- |
| O=C(Cn1cnc2ccccc2c1=O)N1CCC(c2nnc(-c3ccco3)s2)CC1 | Poly [ADP-ribose] polymerase tankyrase-1 (Homo sapiens) (UniProt O95271) | inhibition | 0 |
| COc1ccc(C(N)=O)cc1NC(=O)c1cccc(-c2cnc3[nH]c(=O)n(C)c3c2)c1 | Poly [ADP-ribose] polymerase tankyrase-1 (Homo sapiens) (UniProt O95271) | inhibition | 97 |
| O=C(Cc1n[nH]c(=O)c2ccccc12)OCC(=O)N1CCN(c2ccccn2)CC1 | Poly [ADP-ribose] polymerase tankyrase-1 (Homo sapiens) (UniProt O95271) | inhibition | 100 |
| O[C@H](c1ccccc1)c1cn(C2CCN(Cc3cnc4ccccc4c3)CC2)nn1 | Poly [ADP-ribose] polymerase tankyrase-1 (Homo sapiens) (UniProt O95271) | inhibition | 5 |
| Cc1ccc(C)c(NC(=O)CSc2nnc(Cc3cc(=O)[nH]c(=O)[nH]3)n2-c2ccc(Cl)cc2)c1 | Poly [ADP-ribose] polymerase tankyrase-1 (Homo sapiens) (UniProt O95271) | inhibition | 7 |
| O=C(CCc1nc2ccccc2c(=O)[nH]1)Nc1ccc(-n2cnnn2)cc1 | Poly [ADP-ribose] polymerase tankyrase-1 (Homo sapiens) (UniProt O95271) | inhibition | 67 |
| O=C(Cc1n[nH]c(=O)c2ccccc12)Nc1ccc(Cc2nc3ccccc3s2)cc1 | Poly [ADP-ribose] polymerase tankyrase-1 (Homo sapiens) (UniProt O95271) | inhibition | 35 |
| O=C(NCc1ccc(-c2ccc3c(c2)CCCO3)cc1)c1nc2ccccc2c(=O)[nH]1 | Poly [ADP-ribose] polymerase tankyrase-1 (Homo sapiens) (UniProt O95271) | inhibition | 74 |
